src = patent US12390472B2

This section presents molecules with their documented pIC50 values.
Target: EZH2 enzyme complex (Homo sapiens (Human), UniProt Q15910)
Sequence (Q15910 whole entry): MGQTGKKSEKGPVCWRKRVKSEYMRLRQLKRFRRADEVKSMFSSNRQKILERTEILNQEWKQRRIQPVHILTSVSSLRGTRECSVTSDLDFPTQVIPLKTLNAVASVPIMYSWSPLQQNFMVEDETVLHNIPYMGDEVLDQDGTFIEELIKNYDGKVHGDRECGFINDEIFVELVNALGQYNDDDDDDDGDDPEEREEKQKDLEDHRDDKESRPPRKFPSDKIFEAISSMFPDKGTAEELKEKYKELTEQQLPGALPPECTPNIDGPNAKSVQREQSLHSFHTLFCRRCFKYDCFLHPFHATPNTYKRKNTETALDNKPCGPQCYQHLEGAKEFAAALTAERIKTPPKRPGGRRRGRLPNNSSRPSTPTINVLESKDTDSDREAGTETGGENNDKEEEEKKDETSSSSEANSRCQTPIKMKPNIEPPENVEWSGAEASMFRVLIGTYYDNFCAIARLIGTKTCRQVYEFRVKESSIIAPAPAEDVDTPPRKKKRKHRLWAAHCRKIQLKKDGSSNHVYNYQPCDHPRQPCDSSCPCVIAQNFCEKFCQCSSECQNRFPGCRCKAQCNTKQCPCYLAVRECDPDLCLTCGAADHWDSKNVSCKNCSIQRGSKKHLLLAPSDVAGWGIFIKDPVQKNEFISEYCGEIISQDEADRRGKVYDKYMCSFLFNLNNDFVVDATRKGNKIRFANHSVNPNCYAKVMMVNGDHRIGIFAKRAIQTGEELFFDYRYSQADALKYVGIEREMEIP
Sequence (O75530 whole entry partner): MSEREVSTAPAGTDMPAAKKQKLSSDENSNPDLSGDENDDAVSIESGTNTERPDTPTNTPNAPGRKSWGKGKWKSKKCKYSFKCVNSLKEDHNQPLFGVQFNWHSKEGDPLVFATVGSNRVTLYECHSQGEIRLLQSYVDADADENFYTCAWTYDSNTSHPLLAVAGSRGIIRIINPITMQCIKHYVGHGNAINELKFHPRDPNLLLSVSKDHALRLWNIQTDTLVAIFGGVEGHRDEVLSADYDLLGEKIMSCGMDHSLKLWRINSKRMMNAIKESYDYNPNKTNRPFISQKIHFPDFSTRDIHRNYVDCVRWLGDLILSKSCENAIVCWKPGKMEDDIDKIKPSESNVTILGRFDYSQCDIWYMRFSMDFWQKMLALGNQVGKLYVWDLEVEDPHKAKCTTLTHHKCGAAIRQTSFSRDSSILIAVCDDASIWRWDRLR
Sequence (Q15022 whole entry partner): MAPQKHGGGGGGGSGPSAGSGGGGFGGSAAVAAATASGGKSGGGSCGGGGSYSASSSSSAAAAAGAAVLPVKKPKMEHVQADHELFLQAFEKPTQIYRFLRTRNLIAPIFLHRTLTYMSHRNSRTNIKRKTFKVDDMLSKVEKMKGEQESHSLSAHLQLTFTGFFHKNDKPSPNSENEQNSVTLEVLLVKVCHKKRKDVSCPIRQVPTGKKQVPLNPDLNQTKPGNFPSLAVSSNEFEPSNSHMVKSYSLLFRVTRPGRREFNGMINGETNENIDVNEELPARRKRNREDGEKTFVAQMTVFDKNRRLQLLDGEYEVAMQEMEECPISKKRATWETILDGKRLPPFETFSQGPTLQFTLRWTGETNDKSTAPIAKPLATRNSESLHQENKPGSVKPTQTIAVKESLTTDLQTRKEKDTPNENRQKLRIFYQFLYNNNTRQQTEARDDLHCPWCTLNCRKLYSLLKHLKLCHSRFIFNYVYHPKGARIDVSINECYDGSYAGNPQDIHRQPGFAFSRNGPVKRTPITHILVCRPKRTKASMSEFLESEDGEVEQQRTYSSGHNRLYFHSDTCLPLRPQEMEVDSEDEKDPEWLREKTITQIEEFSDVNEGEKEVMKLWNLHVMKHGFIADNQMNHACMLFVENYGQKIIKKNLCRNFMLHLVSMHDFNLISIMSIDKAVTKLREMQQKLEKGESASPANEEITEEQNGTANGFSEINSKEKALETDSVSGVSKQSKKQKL
Assay: Test on EZH2 inhibitory activity (TR-FRET)
Settings: EZH2 enzyme complex 25 ng/uL, histone H3 peptide 4 uM, SAM 2 uM, 300 min; read-out: IC50 of EZH2 inhibition
pIC50: −log10 of the molar value.
Property: pIC50

molecule="CCN(c1cc(C2CCC2)cc(C(=O)NCc2c(C)cc(C)[nH]c2=O)c1C)C1CCOCC1 [Example 15]" target_desc="EZH2 enzyme complex (Homo sapiens (Human), UniProt Q15910)" property=pIC50 obs_value="7.00 to 8.00"
molecule="CCN(c1cc(C2CC2CN2CCC(F)(F)CC2)cc(C(=O)NCc2c(C)cc(C)[nH]c2=O)c1C)C1CCOCC1 (centres unmarked) [Example 78]" target_desc="EZH2 enzyme complex (Homo sapiens (Human), UniProt Q15910)" property=pIC50 obs_value="7.00 to 8.00"
molecule="CCN(c1cc(O[C@H]2C[C@H](N3CCOCC3)C2)cc(C(=O)NCc2c(C)cc(C)[nH]c2=O)c1C)C1CCC(F)(F)CC1 [Example 63]" target_desc="EZH2 enzyme complex (Homo sapiens (Human), UniProt Q15910)" property=pIC50 obs_value="7.00 to 8.00"
molecule="CCN(c1cc(O[C@H]2C[C@H](CN3CCOCC3)C2)cc(C(=O)NCc2c(C)cc(C)[nH]c2=O)c1Cl)C1CCOCC1 [Example 29]" target_desc="EZH2 enzyme complex (Homo sapiens (Human), UniProt Q15910)" property=pIC50 obs_value="7.00 to 8.00"
molecule="CCN1CCN([C@H]2C[C@@H](Oc3cc(C(=O)NCc4c(C)cc(C)[nH]c4=O)c(C)c(N(CC)C4CCOCC4)c3)C2)CC1 [Example 23]" target_desc="EZH2 enzyme complex (Homo sapiens (Human), UniProt Q15910)" property=pIC50 obs_value="7.00 to 8.00"
molecule="CCN(c1cc(C2CC2CO)cc(C(=O)NCc2c(C)cc(C)[nH]c2=O)c1C)C1CCOCC1 (centres unmarked) [Example 71]" target_desc="EZH2 enzyme complex (Homo sapiens (Human), UniProt Q15910)" property=pIC50 obs_value="7.00 to 8.00"
molecule="CCN(c1cc(O[C@H]2C[C@H](N3CCNCC3)C2)cc(C(=O)NCc2c(C)cc(C)[nH]c2=O)c1Cl)C1CCOCC1 [Example 43]" target_desc="EZH2 enzyme complex (Homo sapiens (Human), UniProt Q15910)" property=pIC50 obs_value="7.00 to 8.00"
molecule="CCN(c1cc(O[C@H]2C[C@@H](N3C[C@@H](C)O[C@@H](C)C3)C2)cc(C(=O)NCc2c(C)cc(C)[nH]c2=O)c1C)[C@@H]1C[C@@H](C)O[C@@H](C)C1 [Example 38]" target_desc="EZH2 enzyme complex (Homo sapiens (Human), UniProt Q15910)" property=pIC50 obs_value="6.00 to 7.00"
molecule="CCN(c1cc(O[C@H]2C[C@@H](N3CCNCC3)C2)cc(C(=O)NCc2c(C)cc(C)[nH]c2=O)c1Cl)C1CCOCC1 [Example 42]" target_desc="EZH2 enzyme complex (Homo sapiens (Human), UniProt Q15910)" property=pIC50 obs_value="7.00 to 8.00"
molecule="CCN(c1cc(C2CC2CN2CCNCC2)cc(C(=O)NCc2c(C)cc(C)[nH]c2=O)c1C)C1CCOCC1 (centres unmarked) [Example 73]" target_desc="EZH2 enzyme complex (Homo sapiens (Human), UniProt Q15910)" property=pIC50 obs_value="7.00 to 8.00"
molecule="CCN(c1cc(C2CC2CN2CCN(C(=O)OC)CC2)cc(C(=O)NCc2c(C)cc(C)[nH]c2=O)c1C)C1CCOCC1 (centres unmarked) [Example 80]" target_desc="EZH2 enzyme complex (Homo sapiens (Human), UniProt Q15910)" property=pIC50 obs_value="7.00 to 8.00"
molecule="CCN(c1cc(O[C@H]2C[C@H](N3CCC(C)CC3)C2)cc(C(=O)NCc2c(OC)cc(C)[nH]c2=O)c1Cl)C1CCOCC1 [Example 89]" target_desc="EZH2 enzyme complex (Homo sapiens (Human), UniProt Q15910)" property=pIC50 obs_value="7.00 to 8.00"
molecule="CCN(c1cc(C2CC2CN2CCOCC2)cc(C(=O)NCc2c(C)cc(C)[nH]c2=O)c1Cl)C1CCOCC1 (centres unmarked) [Example 84]" target_desc="EZH2 enzyme complex (Homo sapiens (Human), UniProt Q15910)" property=pIC50 obs_value="6.00 to 7.00"
molecule="CCN(c1cc(O[C@H]2C[C@@H](N3CCOCC3)C2)cc(C(=O)NCc2c(C)cc(C)[nH]c2=O)c1Cl)C1CCOCC1 [Example 40]" target_desc="EZH2 enzyme complex (Homo sapiens (Human), UniProt Q15910)" property=pIC50 obs_value="7.00 to 8.00"
molecule="CCN(c1cc(O[C@H]2C[C@@H](N3CCN(S(C)(=O)=O)CC3)C2)cc(C(=O)NCc2c(C)cc(C)[nH]c2=O)c1C)C1CCOCC1 [Example 27]" target_desc="EZH2 enzyme complex (Homo sapiens (Human), UniProt Q15910)" property=pIC50 obs_value="> 8.00"
molecule="CCN(c1cc(O[C@H]2C[C@H](N3CCN(C(C)=O)CC3)C2)cc(C(=O)NCc2c(C)cc(C)[nH]c2=O)c1C)C1CCOCC1 [Example 26]" target_desc="EZH2 enzyme complex (Homo sapiens (Human), UniProt Q15910)" property=pIC50 obs_value="7.00 to 8.00"
molecule="CCN1CCN([C@H]2C[C@H](Oc3cc(C(=O)NCc4c(C)cc(C)[nH]c4=O)c(C)c(N(CC)C4CCOCC4)c3)C2)CC1 [Example 24]" target_desc="EZH2 enzyme complex (Homo sapiens (Human), UniProt Q15910)" property=pIC50 obs_value="> 8.00"
molecule="CCN(c1cc(O[C@H]2C[C@H](N3CCOCC3)C2)cc(C(=O)NCc2c(C)cc(C)[nH]c2=O)c1C)C1CCOCC1 [Example 4]" target_desc="EZH2 enzyme complex (Homo sapiens (Human), UniProt Q15910)" property=pIC50 obs_value="7.00 to 8.00"
molecule="CCN(c1cc(OC2CC(N3CCOCC3)C2)cc(C(=O)NCc2c(C)cc(C)[nH]c2=O)c1C)[C@H]1CC[C@H](N(C)CCOC)CC1 (some centres unmarked) [Example 34]" target_desc="EZH2 enzyme complex (Homo sapiens (Human), UniProt Q15910)" property=pIC50 obs_value="7.00 to 8.00"
molecule="CCN(c1cc(OC2CC(CN3CCOCC3)C2)cc(C(=O)NCc2c(C)cc(C)[nH]c2=O)c1C)C1CCOCC1 (centres unmarked) [Example 16]" target_desc="EZH2 enzyme complex (Homo sapiens (Human), UniProt Q15910)" property=pIC50 obs_value="7.00 to 8.00"
molecule="CCN(c1cc(O[C@H]2C[C@H](CN3CCCCC3)C2)cc(C(=O)NCc2c(C)cc(C)[nH]c2=O)c1C)C1CCOCC1 [Example 36]" target_desc="EZH2 enzyme complex (Homo sapiens (Human), UniProt Q15910)" property=pIC50 obs_value="7.00 to 8.00"
molecule="Cc1cc(C)c(CNC(=O)c2cc(OC3CCC3)cc(OC3CCOCC3)c2C)c(=O)[nH]1 [Example 5]" target_desc="EZH2 enzyme complex (Homo sapiens (Human), UniProt Q15910)" property=pIC50 obs_value="6.00 to 7.00"
molecule="CCN(c1cc(C2CC2CN2C[C@@H](C)O[C@@H](C)C2)cc(C(=O)NCc2c(C)cc(C)[nH]c2=O)c1Cl)C1CCOCC1 (some centres unmarked) [Example 85]" target_desc="EZH2 enzyme complex (Homo sapiens (Human), UniProt Q15910)" property=pIC50 obs_value="6.00 to 7.00"
molecule="CCN(c1cc(O[C@H]2C[C@H](CN3C[C@@H](C)O[C@@H](C)C3)C2)cc(C(=O)NCc2c(C)cc(C)[nH]c2=O)c1Cl)C1CCOCC1 [Example 53]" target_desc="EZH2 enzyme complex (Homo sapiens (Human), UniProt Q15910)" property=pIC50 obs_value="7.00 to 8.00"
molecule="CCN(c1cc(O[C@H]2C[C@H](N3CC4CCC(C3)O4)C2)cc(C(=O)NCc2c(C)cc(C)[nH]c2=O)c1Cl)C1CCOCC1 [Example 49]" target_desc="EZH2 enzyme complex (Homo sapiens (Human), UniProt Q15910)" property=pIC50 obs_value="7.00 to 8.00"
molecule="CCN(c1cc(O[C@H]2C[C@H](N3C[C@@H](C)O[C@@H](C)C3)C2)cc(C(=O)NCc2c(C)cc(C)[nH]c2=O)c1C)C1CC2CCC(C1)O2 (some centres unmarked) [Example 47]" target_desc="EZH2 enzyme complex (Homo sapiens (Human), UniProt Q15910)" property=pIC50 obs_value="7.00 to 8.00"
